B1: CD69 (parent)
chain: FVAENSSLHPESGQENDATSPHFS

Variants of: B1
Assay: protein stability index of a GFP-peptide fusion (GPS, HEK-293T) (PSI 1-6); higher = more stable;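 also: lentivirally expressed fusions sorted by FACS into six bins by GFP to DsRed ratio, PSI derived from sequencing read proportions per bin multiplied by bin number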
Conditions: c terminus: a fixed tail appended
Mark criterion not met for protein stability index values under 3, and criterion met for everything at or above.

Check out these entries, answers already filled in.
>>> class("F23N")
"criterion met"
>>> class("H9W")
"criterion not met"
>>> class("A18T")
"criterion not met"
>>> class("H22T")
"criterion met"
>>> class("P10Q")
"criterion met"
>>> class("S7N")
"criterion met"
>>> class("S12W")
"criterion not met"
>>> class("D17V")
"criterion not met"

[ask] Is reported protein stability index greater than or equal to 3 here: `E11D`
[reply] criterion met

[ask] In plain terms: is recorded protein stability index at least 3 for `P10W` ?
[reply] criterion not met
